Test system: β2-containing heterotrimers of human recombinant AMPK
Assay: AMPK activation assay (phosphorylation of ACC1/1-120 at ser79, AlphaScreen), β2-containing heterotrimers
Format: biochemical
Conditions: two β2-containing heterotrimers; 100 µM ATP, room temperature, 60 minutes
Method: The compound of formula (I) was assayed in vitro to determine its EC50 against four different AMPK heterotrimers (two containing the β1 subunit and two containing the β2 subunit). AMPK activity was measured by the phosphorylation of the amino-terminal fragment of human acetyl CoA carboxylase-type 1, amino acids 1-120 (ACC1/1-120), at ser79. The fragment was expressed as a biotinylated fusion protein in E.coli. […]
Recorded metric: EC50

Input line: Missing value: EC50, β2-containing heterotrimers of human recombinant AMPK, entry `O=C(O)c1c[nH]c2ccc(-c3ccc(-c4c(O)cccc4O)cc3)cc12` . Fill in?
Output line: < 5 µM
